Cited source for all entries: a melting point compilation (Tetko et al.; mined from patent text by program, amines drawn as free bases though some values may be those of a salt)

Recorded melting point values for a group of molecules are listed next.

Reference set, count: 5
{"columns": ["MOLECULE", "ENDPOINT_VALUE"],
 "data": [
  ["CN(C(=O)N1CCCC1)c1cccc2cc(-c3nccs3)[nH]c12", "182 °C"],
  ["Cc1nc(Nc2nc(N)nc(-c3ccccc3)c2-c2ccc(=O)n(C(C)C)n2)sc1C", "256 to 258 °C"],
  ["O=CC12CC3CC(CC(C3)C1)C2", "132 to 135 °C"],
  ["Clc1ccc(C2=CCCC2)cc1", "71 to 73 °C"],
  ["COc1ccc(C(=O)Nc2c(Cl)cncc2Cl)cc1OC1COCC1OCSC (centres undefined)", "195 to 198 °C"]
]}

response.value for Cc1ccc(C(=O)c2c(C)cc(C)cc2OCC(O)CNC(C)C)cc1 (centres undefined) (field: melting point) = 89 to 91 °C

response.value for CCOC(=O)c1ccc2[nH]cc(C3=CCN(C)CC3)c2c1 (field: melting point) = 249 °C

response.value for CCn1c(=O)c(C#N)c(N2CCCC2)c2ccc(C)nc21 (field: melting point) = 211 to 213 °C
